Target sequence: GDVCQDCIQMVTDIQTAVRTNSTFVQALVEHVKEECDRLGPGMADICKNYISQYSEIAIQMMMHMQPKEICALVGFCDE

Smiles string | Kd, µM
CCN(CC)CCC[C@@H](C)Nc1ccnc2cc(Cl)ccc12 | 31.8
